Molecular target: human GIP receptor (Homo sapiens)
Construct: host or cells: COS-7 (transient, calcium phosphate; pCMV-Script vector)
Sequence (P48546 22-466): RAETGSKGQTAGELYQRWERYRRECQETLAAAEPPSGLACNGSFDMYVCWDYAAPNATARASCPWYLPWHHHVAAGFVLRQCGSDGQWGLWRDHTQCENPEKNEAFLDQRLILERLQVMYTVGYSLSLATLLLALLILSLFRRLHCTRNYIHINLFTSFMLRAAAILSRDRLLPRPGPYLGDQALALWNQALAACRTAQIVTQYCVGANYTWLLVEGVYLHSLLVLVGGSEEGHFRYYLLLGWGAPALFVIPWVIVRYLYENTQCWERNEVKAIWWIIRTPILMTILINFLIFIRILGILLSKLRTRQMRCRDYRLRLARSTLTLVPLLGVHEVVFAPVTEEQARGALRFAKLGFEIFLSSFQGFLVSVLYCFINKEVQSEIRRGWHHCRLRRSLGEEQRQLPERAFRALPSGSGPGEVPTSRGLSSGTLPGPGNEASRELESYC
Assay: cAMP accumulation assay (HitHunter cAMP XS) in transiently transfected COS-7 cells expressing the human GIP receptor
Type: cell-based
Settings: COS-7, read-out: Emax (10 μM), GIP receptor
Ends that are not written are not given here.
QUANTITY KIND: Emax at 10 µM (%)
Numbers only, in %.

Give Emax at 10 µM for all sequences that follow.
1. HADGTFISDYSTIKDNLAARDFINWLIQTKITK [Co-agonist 25]
2. HADGTFISDYSTILDKLAARDFINWLIQTKITK [Co-agonist 26]

Out:
1: 92; 2: 100

Give Emax at 10 µM for all sequences that follow.
1. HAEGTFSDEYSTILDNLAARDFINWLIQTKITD [Co-agonist 5]
2. HGDGTFISDYSTILDNLAARDFINWLIQTKITD [Co-agonist 11]
3. HADGTFISDYSTILDNLAARDFINWLIQTKIKD [Co-agonist 17]

Out:
1. 75
2. 95
3. 95

---

Hi there, I'd appreciate the recorded fold (fold change of native GLP-2), GLP-2 receptor for every entry that follows.
biological target: human GLP-2 receptor (Homo sapiens); construct: host or cells: COS-7 (transient, calcium phosphate; pCMV-Script vector); assay: cAMP accumulation assay (HitHunter cAMP XS) in transiently transfected COS-7 cells expressing the human GLP-2 receptor; type: cell-based; conditions: Table 1; EC50 relative to native GLP-2
Ends that are not written are not given here.
One number for each entry, in fold.

Some sequences with known fold (fold change of native GLP-2), GLP-2 receptor results, for comparison:
SEQUENCE CODE: HAEGTFISDYSTILDNLAARDFINWLIQTKITD [Co-agonist 1]
EXPERIMENTAL VALUE: 82
//
SEQUENCE CODE: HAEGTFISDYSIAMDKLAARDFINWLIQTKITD [Co-agonist 7]
EXPERIMENTAL VALUE: 293
//
SEQUENCE CODE: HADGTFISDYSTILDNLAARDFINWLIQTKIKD [Co-agonist 17]
EXPERIMENTAL VALUE: 21
//
SEQUENCE CODE: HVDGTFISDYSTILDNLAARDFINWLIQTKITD [Co-agonist 12]
EXPERIMENTAL VALUE: 21
//
SEQUENCE CODE: HAEGSFISDYSTILDNLAARDFINWLIQTKITD [Co-agonist 4]
EXPERIMENTAL VALUE: 21

Give fold (fold change of native GLP-2), GLP-2 receptor for all sequences that follow.
1. HAEGTFISDYSTILDNLAARDFINWLIQTKITDNDWKHNITQ [Co-agonist 2]
2. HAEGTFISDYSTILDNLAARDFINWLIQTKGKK [Co-agonist 10]

Out:
[121, 18]

---

Molecular target: human GIP receptor (Homo sapiens)
Construct: host or cells: COS-7 (transient, calcium phosphate; pCMV-Script vector)
Sequence (P48546 22-466): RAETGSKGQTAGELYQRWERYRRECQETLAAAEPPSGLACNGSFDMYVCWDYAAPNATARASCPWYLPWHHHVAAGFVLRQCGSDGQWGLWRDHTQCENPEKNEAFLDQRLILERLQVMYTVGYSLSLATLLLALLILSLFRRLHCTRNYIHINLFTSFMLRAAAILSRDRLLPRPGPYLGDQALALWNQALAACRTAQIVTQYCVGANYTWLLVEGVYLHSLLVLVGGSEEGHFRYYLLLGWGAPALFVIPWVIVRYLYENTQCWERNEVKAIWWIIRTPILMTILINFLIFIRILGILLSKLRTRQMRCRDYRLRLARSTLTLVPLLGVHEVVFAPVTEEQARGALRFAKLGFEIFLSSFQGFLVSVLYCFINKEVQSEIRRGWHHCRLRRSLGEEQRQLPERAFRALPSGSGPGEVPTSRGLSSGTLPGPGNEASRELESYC
Assay: cAMP accumulation assay (HitHunter cAMP XS) in transiently transfected COS-7 cells expressing the human GIP receptor
Format: cell-based
Details: Table 1; EC50 relative to native GIP
Ends that are not written are not given here.
QUANTITY KIND: fold (fold change of native GIP), GIP receptor (fold)
One number for each entry, in fold.

SEQUENCE CODE: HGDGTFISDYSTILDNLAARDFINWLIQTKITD [Co-agonist 11]
UNIT OF MEASURE: fold
EXPERIMENTAL VALUE: 36

Give fold (fold change of native GIP), GIP receptor for all sequences that follow.
1. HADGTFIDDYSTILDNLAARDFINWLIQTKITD [Co-agonist 14]
2. HAEGTFISDYSTILDNIHQQDFINWLIQTKITD [Co-agonist 8]

Out:
[27, 66]

---

target: human GLP-2 receptor (Homo sapiens); construct: host or cells: COS-7 (transient, calcium phosphate; pCMV-Script vector); assay: cAMP accumulation assay (HitHunter cAMP XS) in transiently transfected COS-7 cells expressing the human GLP-2 receptor; assay type: cell-based; conditions: COS-7, read-out: Emax (10 μM), GLP-2 receptor
Ends that are not written are not given here.
Binary call on Emax at 10 µM with cut-off 90%: strictly below means Satisfied, and equality or higher means Not satisfied.

Here are 4 sequences together with their reported answers.
SEQUENCE CODE: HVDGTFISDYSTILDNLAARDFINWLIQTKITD [Co-agonist 12]
QUALITATIVE LABEL: Satisfied

SEQUENCE CODE: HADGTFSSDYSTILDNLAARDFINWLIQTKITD [Co-agonist 13]
QUALITATIVE LABEL: Not satisfied

SEQUENCE CODE: HADGTFSSDYSTILDNLAAKDFINWLIQTKITD [Co-agonist 20]
QUALITATIVE LABEL: Satisfied

SEQUENCE CODE: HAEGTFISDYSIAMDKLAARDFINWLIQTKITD [Co-agonist 7]
QUALITATIVE LABEL: Satisfied

In: Find out if reported Emax at 10 µM for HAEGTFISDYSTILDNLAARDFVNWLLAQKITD [Co-agonist 9] is less than 90%
Out: Satisfied

In: # iterate: HADGTFISDYSTILDNLAARDFINWLIQTKGKKNDWKHNITQ [Co-agonist 34]
Out: Not satisfied

In: # iterate: HAEGTFISDYSTILDNIHQQDFINWLIQTKITD [Co-agonist 8]
Out: Satisfied

In: # iterate: HADGTFISDYSKILDNLAARDFINWLIQTKITK [Co-agonist 24]
Out: Not satisfied

In: # iterate: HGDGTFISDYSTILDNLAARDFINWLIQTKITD [Co-agonist 11]
Out: Satisfied

In: # iterate: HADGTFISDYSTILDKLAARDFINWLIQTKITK [Co-agonist 26]
Out: Not satisfied

---

Target: human GLP-2 receptor (Homo sapiens)
Construct: host or cells: COS-7 (transient, calcium phosphate; pCMV-Script vector)
Sequence (O95838 1-553): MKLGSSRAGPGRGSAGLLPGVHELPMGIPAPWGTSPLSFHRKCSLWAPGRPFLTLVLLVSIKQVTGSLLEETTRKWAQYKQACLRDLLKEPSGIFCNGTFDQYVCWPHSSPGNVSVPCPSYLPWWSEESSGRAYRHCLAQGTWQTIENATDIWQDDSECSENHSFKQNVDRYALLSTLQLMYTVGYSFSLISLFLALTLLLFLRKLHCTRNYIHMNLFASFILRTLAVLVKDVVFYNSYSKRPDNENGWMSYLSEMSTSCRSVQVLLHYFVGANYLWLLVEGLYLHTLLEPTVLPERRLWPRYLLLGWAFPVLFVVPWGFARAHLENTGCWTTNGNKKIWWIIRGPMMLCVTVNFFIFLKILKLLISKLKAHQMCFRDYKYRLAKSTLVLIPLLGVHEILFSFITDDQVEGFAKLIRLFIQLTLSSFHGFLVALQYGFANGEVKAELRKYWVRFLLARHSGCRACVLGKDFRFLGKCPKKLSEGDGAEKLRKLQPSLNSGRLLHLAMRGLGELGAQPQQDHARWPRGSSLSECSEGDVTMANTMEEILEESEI
Experiment: cAMP accumulation assay (HitHunter cAMP XS) in transiently transfected COS-7 cells expressing the human GLP-2 receptor
Type: cell-based
Conditions: COS-7, read-out: Emax (10 μM), GLP-2 receptor
Ends that are not written are not given here.
Hi there, I'd appreciate the recorded Emax at 10 µM for every entry that follows.

Some sequences with known Emax at 10 µM results, for comparison:
SEQUENCE CODE: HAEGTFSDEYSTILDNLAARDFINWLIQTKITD [Co-agonist 5]
Emax at 10 µM: 91%

SEQUENCE CODE: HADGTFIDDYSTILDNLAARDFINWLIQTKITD [Co-agonist 14]
Emax at 10 µM: 90%

SEQUENCE CODE: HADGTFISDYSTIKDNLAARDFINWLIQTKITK [Co-agonist 25]
Emax at 10 µM: 92%

In: Request the reported Emax at 10 µM associated with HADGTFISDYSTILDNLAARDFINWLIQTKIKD [Co-agonist 17]
Out: 88%

The origin of these recorded values is patent US11725037B2.
